Catalogue of pIC50 readings, one per entry.
System: T98G
Assay: Cytotoxicity against cancer cell lines (Example 5), T98G
Type: cell-based
Settings: Tables 5-12; drug resistant cell line
pIC50: −log10 of the molar value.

Problem: Reported pIC50 for CCOc1cccc2c1C(=O)c1c(OCC)cc(NC(=O)CCCCl)cc1C2=O : what is it?
Result: 4.30

Problem: Moving on to the next compound: CCOc1cccc2c1C(=O)c1c(OCC)cc(NC(=O)CNC)cc1C2=O
Result: 4.95

Problem: Moving on to the next compound: [N-]=[N+]=NCCOc1cccc2c1C(=O)c1c(OCCN=[N+]=[N-])cc(C(=O)O)cc1C2=O
Result: < 4.90

Problem: Moving on to the next compound: C=CCOc1cccc2c1C(=O)c1c(OCC=C)cc(NC(=O)CCl)cc1C2=O
Result: < 4.30

Problem: Moving on to the next compound: C=CCOc1cccc2c1C(=O)c1c(OCC=C)cc(NC(=O)CN=[N+]=[N-])cc1C2=O
Result: < 4.30

Problem: Moving on to the next compound: COc1cccc2c1C(=O)c1c(OC)cc(NC(=O)C(F)F)cc1C2=O
Result: < 4.30

Problem: Moving on to the next compound: [N-]=[N+]=NCCOc1cccc2c1C(=O)c1c(OCCN=[N+]=[N-])cc(C(=O)N=[N+]=[N-])cc1C2=O
Result: < 4.90

Problem: Moving on to the next compound: CN1CCN(CC(=O)Nc2cc(O)c3c(c2)C(=O)c2cccc(O)c2C3=O)CC1
Result: < 4.90
